I'd appreciate it if you could supply Growth Rate values for the items below.
tested on: HEK-293T; test: Incucyte cell viability with HEK293T; assay type: toxicity, cell-based; conditions: human, 6 h, 10 µM, compound concentration 10 uM, replicate number 1, timepoint 6 hours; also: filed as whole numbers so only -1 and 0 and 1 occur
Just the number, please, no unit after it.

Q: Could you tell me which Growth Rate is on file for `CCc1cc(Nc2nccc(-c3c(-c4ccc(OC)c(C(=O)Nc5c(F)cccc5F)c4)nc4ccccn34)n2)c(OC)cc1N1CCC(N2CCN(S(C)(=O)=O)CC2)CC1` ?
A: 0

Q: Could you tell me which Growth Rate is on file for NC(=O)c1ccc2nc(-c3ccc(C4(N)CCC4)cc3)c(-c3ccccc3)n2n1 [BAY-1125976] ?
A: 0

Q: Could you tell me which Growth Rate is on file for O=C(NNS(=O)(=O)c1ccccc1)c1cc(-c2ccnnc2)ccc1F [WM-2474] ?
A: 1

Q: Could you tell me which Growth Rate is on file for `Cc1cc2c(cc1-c1cc(/C=C/C(=O)O)ccc1O)C(C)(C)CCC2(C)C` ?
A: 1

Q: Could you tell me which Growth Rate is on file for `CCCCN(Cc1ccccc1)C(=O)c1ccc(S(=O)(=O)Nc2ccccc2)cc1` ?
A: 1

Q: Could you tell me which Growth Rate is on file for CN(CCOc1ccc(CC2SC(=O)NC2=O)cc1)c1ccccn1 (configuration not stated) [ROSIGLITAZONE] ?
A: 1

Q: Could you tell me which Growth Rate is on file for COc1cc(C)c(Sc2cnc(NC(=O)c3ccc(CNC(C)C(C)(C)C)cc3)s2)cc1C(=O)N1CCN(C(C)=O)CC1 (configuration not stated) ?
A: 0

Q: Could you tell me which Growth Rate is on file for CC[C@@H]1C(=O)N(C)c2cnc(Nc3ccc(C(=O)N[C@H]4CC[C@H](N5CCN(CC6CC6)CC5)CC4)cc3OC)nc2N1C(C)C [VOLASERTIB] ?
A: 0

Q: Could you tell me which Growth Rate is on file for `CC(C)(C)c1ccc(C(=O)Nc2cn3cc(-n4ccnc4)ccc3n2)cc1.Cl.Cl` ?
A: 0

Q: Could you tell me which Growth Rate is on file for `Cc1cn2cc(CC(=O)N3CCC4(CC3)CN(Cc3ccc(-n5nccn5)cc3Cl)C4)nc2s1` ?
A: 0

Q: Could you tell me which Growth Rate is on file for `COc1ccccc1-c1cc(Nc2cccc(CS(N)(=O)=O)c2)ncn1` ?
A: 0

Q: Could you tell me which Growth Rate is on file for `COc1cc(Nc2ccnc3ccc(Br)cc23)cc(OC)c1OC` ?
A: 0

Q: Could you tell me which Growth Rate is on file for `Cc1cc2c(cc1C1(c3ccc(C(=O)O)cn3)CC1)C(C)(C)CCC2(C)C` ?
A: 1

Q: Could you tell me which Growth Rate is on file for C[C@H]1C[C@H]2[C@@H]3CCC4=CC(=O)C=C[C@]4(C)[C@@]3(Cl)[C@@H](O)C[C@]2(C)[C@@]1(O)C(=O)CO [BECLOMETHASONE] ?
A: 1

Q: Could you tell me which Growth Rate is on file for COc1ccc2c(c1)O[C@H](c1ccc(OC)c(OC)c1)C[C@@H]2NC(=O)C1(c2ccc3c(c2)OC(F)(F)O3)CC1 [A-1596584] ?
A: 0

Q: Could you tell me which Growth Rate is on file for `CC(C)C[C@H](NC(=O)N1CCCCCC1)C(=O)N[C@H](Cc1cn(C)c2ccccc12)C(=O)N[C@H](Cc1ccccn1)C(=O)O` ?
A: 0

Q: Could you tell me which Growth Rate is on file for `Cl.O=C(Cc1ccc(Cl)c(Cl)c1)N1CCCC[C@H]1CN1CCCC1` ?
A: 0
